- Tested on: Ryegrass, Italian (Italian ryegrass, Lolium multiflorum)
- Assay Overview: Test A1 postemergence, Ryegrass, Italian
- Format: in vivo
- Condition Context: Postemergence, 31 g ai/ha; 0 to 100 scale (0 no effect, 100 complete control); 10 days
Recorded Plant response rating, Ryegrass, Italian, one value per entry.

Recorded Plant response rating, Ryegrass, Italian, per entry:
Cc1c(NS(=O)(=O)C(F)(F)F)cc(C(=O)N2CCC(Cl)CC2)c(C)c1C [Compound 356]
20
CCOC(=O)N(c1cc(C(=O)N2CCOCC2)c(C)cc1C)S(=O)(=O)C(F)(F)F [Compound 363]
20

Proceed to the following item.
Query: GET /values?readout=Plant response rating, Ryegrass, Italian&system=Ryegrass, Italian (Italian ryegrass, Lolium multiflorum)&item= Cc1c(NS(=O)(=O)C(F)(F)F)cc(C(=O)N2CC(C)OC(C)C2)c(C)c1C (centres unmarked) [Compound 327]
Reply: 0
